Parameter: MIC. Scope: all listed entries.
Tested on: Acinetobacter baumannii
Assay: Antibacterial activity against polymyxin-susceptible Acinetobacter baumannii ATCC 19606 clinical isolates assessed as reduction in bacterial growth by broth microdilution method
Format: functional
Could you give me the number in µg/mL? Just the number is fine.

INSERT INTO measurements (smilesstr, testsystem, outcomemeasure, resultunits, recordedresult) VALUES
  ('CC[C@H](C)CCCCC(=O)N[C@@H](CCN)C(=O)N[C@H](C(=O)N[C@@H](CCN)C(=O)N[C@H]1CCNC(=O)[C@H]([C@@H](C)OC)NC(=O)[C@H](CCN)NC(=O)[C@H](CCN)NC(=O)[C@H](CC(C)C)NC(=O)[C@@H](Cc2ccccc2)NC(=O)[C@H](CCN)NC1=O)[C@@H](C)O', 'Acinetobacter baumannii', 'MIC', 'µg/mL', 16),
  ('CC[C@H](C)CCCCC(=O)N[C@@H](CCN)C(=O)N[C@H](C(=O)N[C@@H](CCN)C(=O)N[C@H]1CCNC(=O)[C@H](C(C)(C)C)NC(=O)[C@H](CCN)NC(=O)[C@H](CCN)NC(=O)[C@H](CC(C)C)NC(=O)[C@@H](Cc2ccccc2)NC(=O)[C@H](CCN)NC1=O)[C@@H](C)O', 'Acinetobacter baumannii', 'MIC', 'µg/mL', 8),
  ('CC[C@H](C)CCCCC(=O)N[C@@H](CCN)C(=O)N[C@H](C(=O)N[C@@H](CCN)C(=O)N[C@H]1CCNC(=O)[C@H](CCCN)NC(=O)[C@H](CCN)NC(=O)[C@H](CCN)NC(=O)[C@H](CC(C)C)NC(=O)[C@@H](Cc2ccccc2)NC(=O)[C@H](CCN)NC1=O)[C@@H](C)O', 'Acinetobacter baumannii', 'MIC', 'µg/mL', 16);

API: the following record is the query input.
Asked: MIC for CC[C@H](C)CCCCC(=O)N[C@@H](CCN)C(=O)N[C@H](C(=O)N[C@@H](CCN)C(=O)N[C@H]1CCNC(=O)[C@H](COC)NC(=O)[C@H](CCN)NC(=O)[C@H](CCN)NC(=O)[C@H](CC(C)C)NC(=O)[C@@H](Cc2ccccc2)NC(=O)[C@H](CCN)NC1=O)[C@@H](C)O ?
Given back: 8
